Test system: PanC-1 pancreatic cancer cells
Test: hexoseaminidase cell proliferation assay, PanC-1
Assay type: cell-based
Conditions: Homo sapiens, PANC-1, 72 h
I'd appreciate it if you could supply IC50 values for the items below.
One number for each entry, in µM.

Consider the worked cases shown below.
C/C(=N\NC(=O)c1ccncc1)c1ccc2ccccc2c1O [MRL16] = 2.5
C/C(=N\NC(=O)c1ccccc1O)c1ccc2ccccc2c1O [MRL18] = 2
C/C(=N\NC(=O)c1ccccc1)c1ccc2ccccc2c1O [MRL19] = 4
C/C(=N\NC(=O)c1ccc(O)cc1)c1ccc2ccccc2c1O [MRL24] = 4

Attention now shifts to the item below.
The reported IC50 of the compound C/C(=N\NC(=O)c1cccnc1)c1ccc2ccccc2c1O [MRL17] was 1
